# EXPERIMENT: APR_HepG2_MitoticArrest_72hr: Apredica 72-hour HepG2 Assay for Mitotic Arrest (AID 2282918)
# MEASUREMENT CONTEXT: high-content imaging, actives raise or lower the signal
Active and inactive are the calls of the source. The calls were made as follows: active = hit-call score of the fitted dose curve at least 0.9, where 1 is the maximum; inactive = score below 0.9.
Reply using exactly one outcome from Y = active, N = inactive

Query block: Test call, this compound: `CCCCOCCOCCOCc1cc2c(cc1CCC)OCO2`
Result block: N

Query block: What would you report for `Cc1nn(C)c(Oc2ccccc2)c1C=NOCc1ccc(C(=O)OC(C)(C)C)cc1` ?
Result block: Y

Query block: What would you report for `CCOC(=O)NCCOc1ccc(Oc2ccccc2)cc1` ?
Result block: N

Query block: What would you report for `CCN(CC)C(=O)c1cccc(C)c1` ?
Result block: N

Query block: What would you report for `CC(C)(C)[C@@H](O)[C@@H](Cc1ccc(Cl)cc1)n1cncn1` ?
Result block: N

Query block: What would you report for `O=C(O)C1(C(=O)Nc2ccc(Cl)cc2Cl)CC1` ?
Result block: N

Query block: What would you report for `CCOC(=O)c1ccc(O)cc1` ?
Result block: N

Query block: What would you report for CCCCC(CC)CN1C(=O)C2C3C=CC(C3)C2C1=O (stereo unspecified) ?
Result block: N

Query block: What would you report for `C#CCOC(=O)[C@@H](C)Oc1ccc(Oc2ncc(Cl)cc2F)cc1` ?
Result block: N

Query block: What would you report for `COC(=O)c1c(Cl)nn(C)c1S(=O)(=O)NC(=O)Nc1nc(OC)cc(OC)n1` ?
Result block: N

Query block: What would you report for `CCN(Cc1c(F)cccc1Cl)c1c([N+](=O)[O-])cc(C(F)(F)F)cc1[N+](=O)[O-]` ?
Result block: N
